target: recombinant rat PAI-1 (Rattus norvegicus, UniProt P20961)
Sequence (P20961 24-402): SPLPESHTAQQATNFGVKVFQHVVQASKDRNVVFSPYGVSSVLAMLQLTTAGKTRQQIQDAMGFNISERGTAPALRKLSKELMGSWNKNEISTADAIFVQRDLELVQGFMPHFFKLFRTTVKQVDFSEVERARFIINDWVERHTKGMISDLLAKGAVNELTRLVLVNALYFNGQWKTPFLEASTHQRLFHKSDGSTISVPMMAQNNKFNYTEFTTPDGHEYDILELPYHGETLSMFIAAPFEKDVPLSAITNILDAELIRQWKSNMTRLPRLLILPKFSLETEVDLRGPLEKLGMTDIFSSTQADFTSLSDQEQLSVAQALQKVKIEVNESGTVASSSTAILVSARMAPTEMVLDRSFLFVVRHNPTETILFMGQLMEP
assay.details: biochemical
condition.summary: read-out: Inhibition Rate of PAI-1 Activity (%)
Give inhibition at 3 µM for every item shown.
One number for each entry, in %.

{"molecule": "CC(C)(C)c1ccc(C(c2ccccc2)N(C(=O)C(=O)O)c2ccc(-c3ccc(OC(F)(F)F)cc3)cc2)cc1 (stereo not drawn) [Compound 222]", "target": "recombinant rat PAI-1 (Rattus norvegicus, UniProt P20961)", "inhibition at 3 µM / %": 91}
{"molecule": "Cc1cc(N(C)C)c(-c2ccc(OC(F)(F)F)cc2)cc1N(Cc1ccc(C(C)(C)C)cc1)C(=O)C(=O)O [Compound 215]", "target": "recombinant rat PAI-1 (Rattus norvegicus, UniProt P20961)", "inhibition at 3 µM / %": 84}
{"molecule": "CC(C)(C)c1ccc(COc2ccc(Oc3ccc(OC(F)(F)F)cc3)cc2CCC(=O)O)cc1 [Compound 96]", "target": "recombinant rat PAI-1 (Rattus norvegicus, UniProt P20961)", "inhibition at 3 µM / %": 49}
{"molecule": "CC(C)(Oc1cc(-c2ccc(OC(F)(F)F)cc2)ccc1OCCCCc1ccccc1)C(=O)O [Compound 116]", "target": "recombinant rat PAI-1 (Rattus norvegicus, UniProt P20961)", "inhibition at 3 µM / %": 43}
{"molecule": "CC(C)(C)c1ccc(CN(C(=O)C(=O)O)c2cccc(Oc3ccc(OC(F)(F)F)cc3)c2)cc1 [Compound 172]", "target": "recombinant rat PAI-1 (Rattus norvegicus, UniProt P20961)", "inhibition at 3 µM / %": 49}
{"molecule": "CC(C)(C)c1ccc(COc2ccc(-c3ccc(OC(F)(F)F)cc3)cc2CC(=O)O)cc1 [Compound 9]", "target": "recombinant rat PAI-1 (Rattus norvegicus, UniProt P20961)", "inhibition at 3 µM / %": 71}
{"molecule": "CC(C)Oc1ccc(N(Cc2ccc(C(C)(C)C)cc2)C(=O)C(=O)O)cc1-c1ccc(OC(F)(F)F)cc1 [Compound 211]", "target": "recombinant rat PAI-1 (Rattus norvegicus, UniProt P20961)", "inhibition at 3 µM / %": 78}
{"molecule": "CC(C)(C)c1ccc(COc2cccc(Oc3ccc(OC(F)(F)F)cc3)c2CCC(=O)O)cc1 [Compound 86]", "target": "recombinant rat PAI-1 (Rattus norvegicus, UniProt P20961)", "inhibition at 3 µM / %": 34}
{"molecule": "CC(C)(Oc1cccc(-c2ccc(OC(F)(F)F)cc2)c1OCc1ccc(C(C)(C)C)cc1)C(=O)O [Compound 118]", "target": "recombinant rat PAI-1 (Rattus norvegicus, UniProt P20961)", "inhibition at 3 µM / %": 77}
{"molecule": "CCCCC(c1ccc(C(C)(C)C)cc1)N(C(=O)C(=O)O)c1ccc(-c2ccc(OC(F)(F)F)cc2)cc1 (stereo not drawn) [Compound 221]", "target": "recombinant rat PAI-1 (Rattus norvegicus, UniProt P20961)", "inhibition at 3 µM / %": 89}

I have 5 molecules here; please give me inhibition at 3 µM for each one.
1. CCCOc1ccc(N(Cc2ccc(C(C)(C)C)cc2)C(=O)C(=O)O)cc1-c1ccc(OC(F)(F)F)cc1 [Compound 185]
2. CCC(CC)Oc1ccc(-c2ccc(OC(F)(F)F)cc2)cc1N(Cc1ccc(C(C)(C)C)cc1)C(=O)C(=O)O [Compound 199]
3. COc1cc(OC)c(N(Cc2ccc(C(C)(C)C)cc2)C(=O)C(=O)O)cc1-c1ccc(OC(F)(F)F)cc1 [Compound 190]
4. CCCCOc1ccc(N(Cc2ccc(C(C)(C)C)cc2)C(=O)C(=O)O)cc1-c1ccc(OC(F)(F)F)cc1 [Compound 193]
5. CC(C)(C)c1ccc(COc2c(OCC(=O)O)cccc2-c2ccc(OC(F)(F)F)cc2)cc1 [Compound 117]

Return:
1: 85; 2: 97; 3: 66; 4: 81; 5: 63
